# Test system: UACC-62
# Test: panel of 60 human tumor cell lines, growth inhibition (Melanoma)
# Condition Description: Homo sapiens, UACC-62, read-out: LC50
Please assign not met whenever CC50 is at or above 50 µM, and met whenever it is below.

>>> df
                                   molecule  class_assignment
0  C=C1C(=O)O[C@H]2[C@H]1CC/C(COC(=O)NCCN1CCCC1)=C\CC[C@@]1(C)O[C@@H]21           not met
1  C=C1C(=O)O[C@H]2[C@H]1CC/C(COC(=O)OC)=C\CC[C@@]1(C)O[C@@H]21               met
2  C=C1C(=O)O[C@H]2[C@H]1CC/C(COC(=O)OCCCN1CCCCC1)=C\CC[C@@]1(C)O[C@@H]21               met
